Reference source for all entries: patent US20220017615A1

# assayed system: T1, cynomolgus CD47, on CHOK1-cCD47 stable cell line (cynomolgus)
# T1 construct: whole, on cells; check before use; also called CHOK1/cynoCD47; monkey-derived CD47
# test name: FACS CHOK1-cCD47; Ab 200 nM
Here, each record is paired with measured mean fluorescence intensity data.
Lab note: record just the number, no unit beside it.

Answered examples (3):
132D1E5 (antibody, V domains shown, Murine hybridoma antibody purified on protein G) VH: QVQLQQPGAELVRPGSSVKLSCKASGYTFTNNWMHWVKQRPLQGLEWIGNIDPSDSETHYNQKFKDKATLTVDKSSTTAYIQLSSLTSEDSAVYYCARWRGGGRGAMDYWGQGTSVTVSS VL: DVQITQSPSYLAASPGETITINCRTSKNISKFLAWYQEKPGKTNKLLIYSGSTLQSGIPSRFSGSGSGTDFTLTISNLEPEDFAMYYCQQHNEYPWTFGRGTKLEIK    6970
95E2D10 (antibody, V domains shown, Murine hybridoma antibody purified on protein G) VH: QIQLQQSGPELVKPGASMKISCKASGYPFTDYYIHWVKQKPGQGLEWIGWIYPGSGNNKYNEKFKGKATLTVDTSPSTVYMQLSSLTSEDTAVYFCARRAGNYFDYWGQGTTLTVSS VL: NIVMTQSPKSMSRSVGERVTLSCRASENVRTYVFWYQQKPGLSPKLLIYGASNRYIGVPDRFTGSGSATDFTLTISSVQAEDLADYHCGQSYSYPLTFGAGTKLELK    21200
25E3B5 (antibody, V domains shown, Murine hybridoma antibody purified on protein G) VH: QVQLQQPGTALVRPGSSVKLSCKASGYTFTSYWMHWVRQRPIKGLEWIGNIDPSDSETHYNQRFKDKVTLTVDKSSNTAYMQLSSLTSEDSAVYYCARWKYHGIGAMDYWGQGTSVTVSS VL: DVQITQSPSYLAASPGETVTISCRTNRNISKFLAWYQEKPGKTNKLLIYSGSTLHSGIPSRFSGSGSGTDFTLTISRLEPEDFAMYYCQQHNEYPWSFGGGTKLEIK    7040

Look up mean fluorescence intensity: 20H4G5 (antibody, V domains shown, Murine hybridoma antibody purified on protein G) VH: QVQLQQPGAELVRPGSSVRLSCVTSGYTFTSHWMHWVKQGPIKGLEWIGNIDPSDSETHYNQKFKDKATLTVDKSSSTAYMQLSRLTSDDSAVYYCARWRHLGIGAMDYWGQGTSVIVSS VL: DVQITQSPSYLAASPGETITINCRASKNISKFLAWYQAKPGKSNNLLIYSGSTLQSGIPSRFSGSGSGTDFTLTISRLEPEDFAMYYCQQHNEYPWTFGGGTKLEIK
16500
